The measurements presented in this section are drawn from the supplement of paper PMC10126150.

test system: ATP; experiment: switch fluorescence ratio, 500 uM ATP over buffer (Cy3 cluster intensity, sum of 5 cycles each) (fold (ratio)); higher = stronger signal-on switching upon ATP binding; sequences stand for … in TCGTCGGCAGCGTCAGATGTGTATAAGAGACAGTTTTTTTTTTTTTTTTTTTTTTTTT…TC; conditions: aptamer strand: ATP DNA aptamer (quencher-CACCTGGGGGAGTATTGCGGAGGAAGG + anchor), 100 nM annealed; ATP concentration: 500 uM;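 further: ATP exposure 15 min at 22 °C before imaging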
ASSAY READOUT: switch fluorescence ratio
Answers are plain numbers.

In the examples that follow, each entry is paired with its recorded switch fluorescence ratio.
TACTGATTTG ... 1.02
GGTTTCGCCG ... 0.985
ATTATACTGG ... 1
GGGAAGTCAC ... 1.12
TTGCCGGGTT ... 1.17

Quick one: give me switch fluorescence ratio for each item below, same order please.
1. TAGGCGGGTG
2. ACTATATTGG
3. GAGGGTCAAA
4. TTAAGTGGGG
5. TTTGCTATCA

## Result
1: 1.03; 2: 1.06; 3: 1; 4: 1.02; 5: 0.984

Quick one: give me switch fluorescence ratio for each item below, same order please.
1. GTAATAACGG
2. ATGTTGAGCT
3. TGCGGCGACG
4. CATCCCTCAA
5. TGGGTTTGTC
6. GGGGCGTACG
7. TGTTTGTCTA
8. TATCAGGTAG

## Result
[1.03, 1.02, 0.993, 1.86, 0.96, 1.05, 1.01, 1]

Quick one: give me switch fluorescence ratio for each item below, same order please.
1. TTTGTGGGGC
2. TTATTTAGGG
3. GGATTTGAGT
4. GCGGGGGGCG

## Result
1: 1.01; 2: 0.991; 3: 0.976; 4: 1.01

* * *

tested on: ATP; experiment: switch fluorescence ratio, 500 uM ATP over buffer (Cy3 cluster intensity, sum of 5 cycles each) (fold (ratio)); higher = stronger signal-on switching upon ATP binding; sequences stand for … in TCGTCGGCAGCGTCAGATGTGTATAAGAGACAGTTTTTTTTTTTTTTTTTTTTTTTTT…TC; details: aptamer strand: ATP DNA aptamer (quencher-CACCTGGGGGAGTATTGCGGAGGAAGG + anchor), 100 nM annealed; ATP concentration: 500 uM;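 further: ATP exposure 15 min at 22 °C before imaging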
ASSAY READOUT: switch fluorescence ratio
One number for each entry.

In the examples that follow, each entry is paired with its recorded switch fluorescence ratio.
GTTCGGAGTG ... 0.988
TTTATGGAAT ... 0.998
ATTAGTGTGG ... 1
CACCATTAAT ... 1.01
CTGACACCCG ... 1.07

Quick one: give me switch fluorescence ratio for each item below, same order please.
1. CTTTTACTAA
2. AATGGTTGAC
3. AATTTGGTG
4. AACTGTTGGG
5. AAATGCGTTA
6. GCGAGGTAGG
7. TTGTAACCAG
8. CCATTAGTTT

## Result
[1.02, 0.988, 1.03, 0.993, 1.01, 0.967, 1, 0.987]

* * *

test system: ATP; assay: switch fluorescence ratio, 500 uM ATP over buffer (Cy3 cluster intensity, sum of 5 cycles each) (fold (ratio)); higher = stronger signal-on switching upon ATP binding; sequences stand for … in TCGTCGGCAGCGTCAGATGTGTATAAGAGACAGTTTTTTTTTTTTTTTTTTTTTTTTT…TC; conditions: aptamer strand: ATP DNA aptamer (quencher-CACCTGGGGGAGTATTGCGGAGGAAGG + anchor), 100 nM annealed; ATP concentration: 500 uM;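 further: ATP exposure 15 min at 22 °C before imaging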
Mark no (0) for switch fluorescence ratio values under 1, and yes (1) for everything at or above.

TGTAGGACGG ... yes (1)
CTGTGGGGGT ... yes (1)
CGGGATCATT ... no (0)

## Task Check the entry GTGGGGTCGT : does switch fluorescence ratio equal or exceed 1?
## Result no (0)

## Task Check the entry TCGTCCGGAG : does switch fluorescence ratio equal or exceed 1?
## Result yes (1)

## Task Check the entry TAATTGCTTT : does switch fluorescence ratio equal or exceed 1?
## Result no (0)

## Task Check the entry TAGCCGCTTT : does switch fluorescence ratio equal or exceed 1?
## Result yes (1)

## Task Check the entry GACTTTTCCT : does switch fluorescence ratio equal or exceed 1?
## Result yes (1)

## Task Check the entry GCGTAAACGG : does switch fluorescence ratio equal or exceed 1?
## Result yes (1)
